- protocol-conditions: buffer; pH 7.4; 200.0 µM
What solubility kinetic was measured for each of the following?

Here are 4 compounds together with their reported answers.
[ask] Look up solubility kinetic for this compound: CCN(CC)C(C(=O)NC1CCCCC1)c1ccc(C)cc1 (configuration not stated)
[reply] > 45.4 µg/mL

[ask] Another compound: COc1cc(C(=O)N2CCN(C3CCCCC3)CC2)cc(OC)c1OC.O=C(O)C(=O)O
[reply] > 67.9 µg/mL

[ask] Another compound: N#Cc1cccc(NC(=O)CCNC(=O)c2ccccc2Cl)c1
[reply] > 49.2 µg/mL

[ask] Another compound: CCOc1ccc(S(=O)(=O)NC(C)C(=O)NCc2ccccn2)cc1 (configuration not stated)
[reply] > 54.5 µg/mL

Provide the reported solubility kinetic of each entry below, same order.
1. COc1ccc(NC(=O)c2cc(C)nc3ccccc23)c(OC)c1
2. CCCCC(=O)Nc1cccc(-c2nc3ncccc3o2)c1C
3. Cc1cc(C)c(C#N)c(SCc2ccccc2F)n1

[reply]
1: > 48.4 µg/mL; 2: > 46.4 µg/mL; 3: < 0.3 µg/mL
